Listed here: items and their measured AC50.
target: PKR K410E (Homo sapiens, UniProt P30613, K410E); assay: PKR mutant assay (K410E), AC50, LDH/NADH-coupled, absorbance at 340 nm; type: biochemical; settings: Table 2; enzyme assay
Sequence (P30613 whole entry K410E): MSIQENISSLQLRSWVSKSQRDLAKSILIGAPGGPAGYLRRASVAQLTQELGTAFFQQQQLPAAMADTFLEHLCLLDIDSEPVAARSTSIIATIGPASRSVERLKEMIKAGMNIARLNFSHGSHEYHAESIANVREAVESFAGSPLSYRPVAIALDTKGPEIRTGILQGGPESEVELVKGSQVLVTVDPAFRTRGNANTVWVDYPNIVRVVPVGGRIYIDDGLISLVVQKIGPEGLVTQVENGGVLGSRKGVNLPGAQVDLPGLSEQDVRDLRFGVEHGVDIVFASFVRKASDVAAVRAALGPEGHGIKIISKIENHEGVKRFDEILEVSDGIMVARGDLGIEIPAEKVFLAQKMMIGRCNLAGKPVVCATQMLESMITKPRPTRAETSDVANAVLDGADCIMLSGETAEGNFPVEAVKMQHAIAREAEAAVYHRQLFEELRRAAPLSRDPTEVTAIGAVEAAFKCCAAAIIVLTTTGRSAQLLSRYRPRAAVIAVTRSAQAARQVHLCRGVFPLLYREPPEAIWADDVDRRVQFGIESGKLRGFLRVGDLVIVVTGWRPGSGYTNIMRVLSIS

{"columns": ["compound", "AC50"],
 "data": [
  ["Cn1c2nc(C(N)=O)sc2c2cnn(Cc3csc(N)n3)c(=O)c21", "< 300 nM"],
  ["C=Cc1nc2c(s1)c1cnn(Cc3cccc4[nH]ncc34)c(=O)c1n2C", "> 800 nM"],
  ["COc1cccc(Cn2ncc3c4sc(OC)nc4n(C)c3c2=O)c1", "< 300 nM"],
  ["Cc1nc2c(s1)c1cnn(Cc3ccc([N+](=O)[O-])cc3)c(=O)c1n2C", "> 800 nM"],
  ["Cc1nc2c(s1)c1cnn(Cc3cn[nH]c3)c(=O)c1n2C", "> 800 nM"],
  ["Cn1c2nc(C(O)(C(N)=O)c3ccccc3)sc2c2cnn(Cc3cccc4[nH]ncc34)c(=O)c21 (centres unmarked)", "< 300 nM"],
  ["COc1cccc(Cn2ncc3c4sc([S+]([O-])c5ccccc5)nc4n(C)c3c2=O)c1 (centres unmarked)", "301 to 800 nM"],
  ["Cn1c2nc([S+](C)[O-])sc2c2cnn(Cc3ccnc(N)n3)c(=O)c21 (centres unmarked)", "> 800 nM"],
  ["COc1cccc(Cn2ncc3c4sc(Cc5ccc(F)cc5)nc4n(C)c3c2=O)c1", "< 300 nM"],
  ["COc1cccc(Cn2ncc3c4sc(Cc5cc[nH]n5)nc4n(C)c3c2=O)c1", "< 300 nM"],
  ["Cc1nc2c(s1)c1cnn(Cc3ccc(N)cc3)c(=O)c1n2C", "> 800 nM"]
]}
